Recorded values, source PubChem BioAssay (NCI).

- System: SF-268 CNS
- Protocol description: NCI-60 one-dose screen, 48 h
- Settings: 10 µM unless noted
Compounds without any hit were thinned out: in the full panel of roughly 83,000, 20% have a hit. The source made the active and inactive calls. How the source made its calls: active means growth percent below 10; inactive means the rest.
Choose one outcome from this list and give only that: yes for active, no for inactive

Worked cases, answers included:
CC(C)(C)c1cc(O)c(O)c(C(C)(C)C)c1	no
CCc1[nH]nc(-c2ccc(OC)cc2)c1-c1ccccc1OCCN(CC)CC	no
CC[C@@H]1OC(=O)[C@H](C)[C@@H](O[C@H]2C[C@@](C)(OC)[C@@H](O)[C@H](C)O2)[C@H](C)[C@@H](O[C@@H]2O[C@H](C)C[C@H](N(C)C)[C@H]2O)[C@](C)(O)C[C@@H](C)[C@@H]2N[C@@H](COCCOC)O[C@H]([C@H]2C)[C@]1(C)O	no
NC(=Nc1ccccc1)SCCCCSC(N)=Nc1ccccc1	no
Cc1c(C(N)=O)sc2c1c(=O)n(Cc1ccccc1)c1nnc(S(=O)(=O)CC(=O)Nc3ccc(Cl)cc3)n21	no
COc1cc(C2NC(c3ccc(Cl)cc3)C(C)C(=NC(=O)c3cnccn3)C2C)cc(OC)c1OC (stereo unspecified)	no
CCOC(=O)C1=C(COCCN)NC(C)=C(C(=O)OC)C1c1ccccc1Cl (stereo unspecified)	no
CCC1=C(c2ccc(OC)cc2)C(C)(C)Oc2cc(O)c(CN3CCCC3)cc21	no
CCCCOc1ccc(C(C)(C)c2ccc(OCCCC)cc2)cc1	no
O=C1C(Cl)=C(N=Nc2c(Cl)c(O)c3ccccc3c2O)C(=O)c2ccccc21	no

In this assay, the call recorded for `O=C(/C=C/c1ccccc1Cl)c1ccc(O)cc1` was what?
no

In this assay, the call recorded for `CC(=O)Nc1ccc2c(c1)Cc1c(F)c(F)c(F)c(F)c1-2` was what?
no

In this assay, the call recorded for `COc1ccc2nccc(/C=C/c3ccnc4ccc(OC)cc34)c2c1` was what?
no

In this assay, the call recorded for `CCCCCCCCCCSc1ncnc2nc[nH]c12` was what?
no

In this assay, the call recorded for `COc1ccc2nc3cc(Cl)ccc3c(N3CCN(c4ccnc(Nc5ccc(F)cc5)n4)CC3)c2c1` was what?
no

In this assay, the call recorded for CSc1ncc2ncn(C3OC(CO)C(O)C3O)c2n1 (stereo unspecified) was what?
no

In this assay, the call recorded for `CC(C)[C@H]1CC[C@H]2[C@@H](CC[C@H]3[C@](C)(CN)CCC[C@]23C)C1` was what?
no

In this assay, the call recorded for `CCCc1cc(=O)n2c(C(=O)Nc3ccccc3OC)c(C(=O)Nc3ccc(F)cc3)sc2n1` was what?
yes

====

- Tested on: MDA-MB-435 melanoma
- Protocol description: NCI-60 one-dose screen, 48 h (100 = growth as untreated, 0 = no growth, -100 = all killed)
- Settings: 10 µM unless noted
The panel holds about 83,000 compounds, 20% with a hit somewhere; the sample as a whole holds those more often.
Rule: measured growth below 90% gets Satisfied; anything equal to or greater than 90% gets Not satisfied.

O=[N+]([O-])c1ccc(N/N=C\c2ccccc2[N+](=O)[O-])nc1	Not satisfied

Problem: For the compound `c1csc([C@@H]2C[C@@H]3Cc4ccc5ccccc5c4N2O3)c1` , is growth under 90%?
Satisfied

Problem: For the compound `CCC(=O)Nc1ccccc1C#C/C=C\C#Cc1ccccc1C(F)(F)F` , is growth under 90%?
Satisfied

Problem: For the compound `COC(=O)[C@]1(CCSC)N[C@H](c2cn(-c3ccccc3)nc2C)[C@@H]2C(=O)N(c3ccccc3)C(=O)[C@@H]21` , is growth under 90%?
Not satisfied

Problem: For the compound `COc1ccc(-c2cn(-c3ccccc3)c(-c3ccccc3)n2)cc1OC` , is growth under 90%?
Satisfied
